- Tgt: Full length DGKζ (in-house protein M1-V929) (Homo sapiens)
- Construct: His (N); TEV cleavage site (N)
- Sequence (Q13574 1-929 isoform Q13574-4): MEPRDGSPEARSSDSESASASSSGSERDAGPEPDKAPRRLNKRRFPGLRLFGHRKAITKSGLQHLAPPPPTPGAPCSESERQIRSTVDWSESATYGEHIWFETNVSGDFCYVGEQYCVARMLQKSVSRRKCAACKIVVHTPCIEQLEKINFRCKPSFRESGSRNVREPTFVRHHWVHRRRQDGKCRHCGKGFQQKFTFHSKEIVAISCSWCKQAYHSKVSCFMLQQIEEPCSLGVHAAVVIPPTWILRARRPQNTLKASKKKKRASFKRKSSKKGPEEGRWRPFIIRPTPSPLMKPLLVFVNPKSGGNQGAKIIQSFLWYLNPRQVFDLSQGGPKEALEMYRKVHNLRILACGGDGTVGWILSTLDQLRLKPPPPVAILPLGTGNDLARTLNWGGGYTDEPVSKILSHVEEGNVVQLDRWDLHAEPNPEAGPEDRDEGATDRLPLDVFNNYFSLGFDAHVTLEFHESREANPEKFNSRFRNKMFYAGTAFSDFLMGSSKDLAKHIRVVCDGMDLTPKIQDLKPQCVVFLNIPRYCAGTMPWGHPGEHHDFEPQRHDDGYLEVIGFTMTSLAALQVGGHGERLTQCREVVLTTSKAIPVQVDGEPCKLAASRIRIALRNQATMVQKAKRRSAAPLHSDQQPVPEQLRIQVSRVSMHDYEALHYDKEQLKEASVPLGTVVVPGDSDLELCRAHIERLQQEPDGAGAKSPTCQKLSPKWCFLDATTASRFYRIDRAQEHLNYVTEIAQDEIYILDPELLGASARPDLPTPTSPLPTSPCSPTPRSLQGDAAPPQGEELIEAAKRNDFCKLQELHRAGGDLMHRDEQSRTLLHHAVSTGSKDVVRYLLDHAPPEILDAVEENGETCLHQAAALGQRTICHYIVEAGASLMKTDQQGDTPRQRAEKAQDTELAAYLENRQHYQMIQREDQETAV
- Experiment: Biochemical DGK IC50 assay (ADP-Glo, lipid micelle substrate), DGKζ
- Test parameters: 0.5 nM enzyme, 140 μM ATP, 80 μM DAG, 1 hour preincubation, 1 hour reaction, room temperature, read-out: IC50s for DGKζ
Measured quantity: pIC50
pIC50 field: float, defined as -log10 of concentration (mol/L).

Inquiry: Recall the recorded pIC50 for CC#CCc1cn2c(n1)c(N1C[C@@H](CC)N(C(C)c3ccc4ncsc4c3F)C[C@@H]1CC)cc(=O)n2C (single isomer, unassigned) [Compound A117a] with Full length DGKζ (in-house protein M1-V929) (Homo sapiens) and state it.
Reply text: 7.32

Inquiry: Another compound: CC#CCc1cn2c(n1)c(N1C[C@@H](CC)N(C(C)c3ccc4ncsc4c3F)C[C@@H]1CC)cc(=O)n2C (single isomer, unassigned) [Compound A117b]
Reply text: 5.70

Inquiry: Same question for CC[C@H]1CN(C(C)c2ccc(OC(C)C)cc2)[C@H](CC)CN1c1cc(=O)n(C)n2cc(CC#N)nc12 (stereo partly drawn) please.
Reply text: 6.55

Inquiry: Ok, now CC[C@H]1CN(C(C)c2ccc(C3CC3)nc2)[C@H](CC)CN1c1cc(=O)n(C)n2cc(CC#N)nc12 (single isomer, unassigned) [Compound A37a]
Reply text: 7.70

Inquiry: Try CC(c1ccc2c(c1)OC(C)(C)CO2)N1C[C@H](C)N(c2c(F)c(=O)n(C)n3cc(CC#N)nc23)C[C@H]1C (mixture of isomers) [Compound A26] next.
Reply text: 7.80

Inquiry: Entry to check: CC[C@H]1CN(C(C)c2ccc3ncsc3c2)[C@H](CC)CN1c1cc(=O)n(C)n2cc(CC#N)nc12 (single isomer, unassigned) [Compound A53a]
Reply text: 8.40
